Values compiled from patent US20180185504A1.

For each entry below, report its IC50 of Blocking 5 nM PRL [M] (STAT5-Luc reporter, HEK293/hPRLR/STAT5-Luc cells) value.
system_tested: T1, human PRLR on cells (endogenous on T47D, T47D#11, MCF7); introduced in HEK293/hPRLR/STAT5-Luc, 293/hPRLR, … (human, UniProt P16471 25-622)
T1 sequence: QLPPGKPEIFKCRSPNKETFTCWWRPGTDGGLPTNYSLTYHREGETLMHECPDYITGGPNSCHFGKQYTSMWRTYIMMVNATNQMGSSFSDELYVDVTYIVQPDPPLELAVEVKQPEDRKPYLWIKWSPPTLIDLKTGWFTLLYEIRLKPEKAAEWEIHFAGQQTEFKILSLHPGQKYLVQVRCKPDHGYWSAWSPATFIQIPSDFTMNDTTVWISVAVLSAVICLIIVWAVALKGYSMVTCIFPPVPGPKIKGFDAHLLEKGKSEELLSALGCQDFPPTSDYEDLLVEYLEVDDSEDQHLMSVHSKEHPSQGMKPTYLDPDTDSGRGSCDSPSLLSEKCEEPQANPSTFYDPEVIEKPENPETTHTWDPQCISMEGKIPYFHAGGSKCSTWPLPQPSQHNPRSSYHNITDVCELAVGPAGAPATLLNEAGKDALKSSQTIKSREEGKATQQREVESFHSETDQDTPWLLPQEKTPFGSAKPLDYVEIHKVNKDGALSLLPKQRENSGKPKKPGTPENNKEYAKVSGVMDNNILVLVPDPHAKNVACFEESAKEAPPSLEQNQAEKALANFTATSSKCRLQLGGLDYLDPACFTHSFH
protocol: cell-based or functional assay
Return type: number; implicit unit M.

// sample H1H6967N (antibody, human IgG1, V domains shown, also called H2M6967N) VH: EVQLVESGGDLVHPGRSLRLSCAASGFPFDEYAMHWVRQVPGKGLEWVSGISWSNNNIGYADSVKGRFTISRDNAKNSLYLQMNSLRPEDTAFYYCAKSGIFDSWGQGTLVTVSS VL: EIVMTQSPATLSVSPGERATLSCRASQSVSRDLAWYQQKPGQAPRLLIHGASTRATGIPARFSGSGSGAEFTLIISSLQSEDFAVYYCQQYNNWPLTFGGGTKVEIK , its IC50 of Blocking 5 nM PRL [M] (STAT5-Luc reporter, HEK293/hPRLR/STAT5-Luc cells) was 7.68e-10

Field IC50 of Blocking 5 nM PRL [M] (STAT5-Luc reporter, HEK293/hPRLR/STAT5-Luc cells) (entry H1H6792P (antibody, human IgG1, V domains shown, human IgG1 Fc (H1H)) VH: EVQLVESGGGLVQPGRSLRLSCAASGFTLDDHAVHWVRQAPGKGLEWVSGISWNSVYIDYADSVKGRFTIFRDNAKNSLYLQMNSLRAEDTAFYYCARDIEGARDYWGQGTLVTVSS VL: DIQMTQSPSSLSASVGDRVTITCRASQGIRNDLGWYQQKPGKAPKRLIYAASSLQSGVPSRFSGSGYGTEFTLTISSLQPEDFAPYYCLQHNSYPLTFGGGTKVEIK ) reads 5.7e-10

Summary for this binder, H1H6800P (antibody, human IgG1, V domains shown, human IgG1 Fc (H1H)) VH: EVQLVESGGGLVQPGRSLRLSCAASGFTFDGYAMHWVRQGPGKGLEWVSGISWYSDTLGYADSVKGRFTISRDNAKNSLYLQMNSLRTEDTAFYYCAKISSSGWAFDYWGQGTLVTVSS VL: EIVLTQSPGTLSLSPGERATLSCRASHSVSSAYLAWYQQKPGQTPRLLIYGTSSRATGIPDRFSGSGSGTDFTLTISRLEPEDFAVYYCQQYGSSPLFTFGPGTKVDIK : IC50 of Blocking 5 nM PRL [M] (STAT5-Luc reporter, HEK293/hPRLR/STAT5-Luc cells) is 3.55e-10

Entry H1H6762P (antibody, human IgG1, V domains shown, human IgG1 Fc (H1H)) VH: QVQLVESGGGVVQPGRSLRLSCAASGFTFSHYGMVWVRQPPGKGLEWVALISFDGTTKYYADSVKGRFTISRDNSKNTLYLQMNSLRAEDTAVYFCVGAIAAAAFDLWGRGTLVTVSS VL: EIVMTQSPATLSVSPGERATLSCRASQSVSSDLAWYQQKPGQAPRLLIYSASARATGIPARFTGSGSGTDFTLTISSLQSEDFAVYYCQQYNNWPMYTFGQGTKLEIK , IC50 of Blocking 5 nM PRL [M] (STAT5-Luc reporter, HEK293/hPRLR/STAT5-Luc cells) reported as 2.19e-11

For record H1H6960N (antibody, human IgG1, V domains shown, also called H2M6960N) VH: EVQLVESGGGLVKPGGSLRLSCAASGITFSSYSMNWVRQAPGKGLEWVSSISTRSSLIHYADSVKGRFTISRDNAKNSLYLQMNSLRDEDTAVYYCARWDAAAAFDYWGQGTLVIVSS VL: DIQLTQSPSFLSASVGDRVTITCWASQGISSYLAWYQQKPGKAPKLLIYVASTLQSGVPSRFSGSGSGTEFTLTISSLQPEDFATYFCQQLNSYPLTFGGGTKVEIK the listed IC50 of Blocking 5 nM PRL [M] (STAT5-Luc reporter, HEK293/hPRLR/STAT5-Luc cells) is 1.58e-09
